target: UniProt Q96IY4
Sequence (Q96IY4 whole entry): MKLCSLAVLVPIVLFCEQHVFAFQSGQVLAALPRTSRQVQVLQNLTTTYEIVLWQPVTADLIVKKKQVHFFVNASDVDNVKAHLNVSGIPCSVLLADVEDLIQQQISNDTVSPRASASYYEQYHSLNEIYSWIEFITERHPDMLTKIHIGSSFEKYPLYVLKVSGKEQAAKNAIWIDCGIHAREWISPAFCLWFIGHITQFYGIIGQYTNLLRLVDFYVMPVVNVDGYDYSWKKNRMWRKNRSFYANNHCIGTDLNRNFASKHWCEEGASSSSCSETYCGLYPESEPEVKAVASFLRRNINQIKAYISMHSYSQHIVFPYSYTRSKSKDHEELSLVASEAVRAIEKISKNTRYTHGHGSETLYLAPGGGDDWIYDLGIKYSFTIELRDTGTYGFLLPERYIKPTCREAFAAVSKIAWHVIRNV
Mark met only for IC50 values smaller than 5 µM; exact matches and larger values are not met.

Completed entries (count: 5):
CC(C)CCn1cnc(C(CCCCN)C(=O)O)c1 (centres undefined); met
O=C(O)C(CC1CCCNCC1)c1c[nH]cn1 (centres undefined); not met
Nc1cc(CC(C(=O)O)c2c[nH]cn2)ccn1 (centres undefined); not met
O=C(O)C(CCC1CCNC1)c1cnc[nH]1 (centres undefined); not met
Cc1cc(CC(C(=O)O)c2cn(CCC(C)(C)C)cn2)cnc1N (centres undefined); met

Inquiry: # TODO verify IC50 < 5 µM strictly for this compound: O=C(O)C(CCC1CNC1)c1cnc[nH]1 (centres undefined)
Reply text: not met

Inquiry: # TODO verify IC50 < 5 µM strictly for this compound: NCCCCCC(C(=O)O)c1cnc[nH]1 (centres undefined)
Reply text: met

Inquiry: # TODO verify IC50 < 5 µM strictly for this compound: O=C(O)C(CC1CCNC1)c1c[nH]cn1 (centres undefined)
Reply text: not met

Inquiry: # TODO verify IC50 < 5 µM strictly for this compound: O=C(O)C(CCC1CCCNCC1)c1cnc[nH]1 (centres undefined)
Reply text: not met
